Target: T1, human PD-1 expressed on cells (human, UniProt Q15116 25-288)
T1 construct: whole, on cells; also called HuT78/PD-1; NK92MI/PD-1
T1 sequence (Q15116 25-288): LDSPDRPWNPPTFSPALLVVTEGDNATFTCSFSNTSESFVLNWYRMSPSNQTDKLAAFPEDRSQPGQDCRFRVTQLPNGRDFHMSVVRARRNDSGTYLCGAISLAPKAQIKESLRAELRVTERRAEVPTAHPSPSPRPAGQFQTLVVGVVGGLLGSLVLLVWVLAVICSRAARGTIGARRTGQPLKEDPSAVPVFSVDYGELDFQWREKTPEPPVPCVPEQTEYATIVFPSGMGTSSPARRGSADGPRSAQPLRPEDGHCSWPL
Experiment: FACS on PD-1-expressing cells
endpoint_label: EC50 (µg/mL)

# binder, endpoint_label, reported_value
rows = [
    ("hu326-2 S84N (antibody, V domains shown, mAb; constant regions not restated (hu326-1 is IgG2 / kappa); Back mutation to murine) VH: QVQLVQSGSELKKPGASVKVSCKASGYTFTNYGMNWVRQAPGQGLEWMGWINNNNGEPTYAQGFRGRFVFSLDTSASTAYLQINSLKTEDTAVYFCARDVMDYWGQGTTVTVSS VL: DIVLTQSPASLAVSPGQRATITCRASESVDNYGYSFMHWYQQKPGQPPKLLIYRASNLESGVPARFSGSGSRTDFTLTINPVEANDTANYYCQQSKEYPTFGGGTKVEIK", "EC50", 0.131),
    ("hu326-2 F95Y (antibody, V domains shown, mAb; constant regions not restated (hu326-1 is IgG2 / kappa); Forward mutation to human) VH: QVQLVQSGSELKKPGASVKVSCKASGYTFTNYGMNWVRQAPGQGLEWMGWINNNNGEPTYAQGFRGRFVFSLDTSASTAYLQISSLKTEDTAVYYCARDVMDYWGQGTTVTVSS VL: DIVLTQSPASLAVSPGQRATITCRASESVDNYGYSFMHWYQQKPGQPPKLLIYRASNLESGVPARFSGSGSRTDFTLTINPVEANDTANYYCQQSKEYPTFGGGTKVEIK", "EC50", 0.097),
    ("hu326-2 S9P (antibody, V domains shown, mAb; constant regions not restated (hu326-1 is IgG2 / kappa); Back mutation to murine) VH: QVQLVQSGPELKKPGASVKVSCKASGYTFTNYGMNWVRQAPGQGLEWMGWINNNNGEPTYAQGFRGRFVFSLDTSASTAYLQISSLKTEDTAVYFCARDVMDYWGQGTTVTVSS VL: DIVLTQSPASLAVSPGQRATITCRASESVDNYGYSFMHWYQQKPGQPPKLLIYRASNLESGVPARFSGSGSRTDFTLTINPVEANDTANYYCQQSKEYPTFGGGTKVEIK", "EC50", 0.145),
    ("hu326-1 (antibody, IgG2, V domains shown, not shown: a dimerising Fc or GST, domain: Ig kappa C-region; Initial humanized version, IgG2 / kappa) VH: QVQLVQSGSELKKPGASVKVSCKASGYTFTNYGMNWVRQAPGQGLEWMGWINNNNGEPTYAQGFRGRFVFSLDTSASTAYLQISSLKTEDTAVYFCARDVMDYWGQGTTVTVSS VL: DIVLTQSPASLAVSPGQRATITCRASESVDNYGYSFMHWYQQKPGQPPKLLIYRASNLESGVPARFSGSGSRTDFTLTINPVEANDTANYYCQQSKEYPTFGGGTKVEIKR", "EC50", 0.317),
    ("hu326-2 E46K (antibody, V domains shown, mAb; constant regions not restated (hu326-1 is IgG2 / kappa); Back mutation to murine) VH: QVQLVQSGSELKKPGASVKVSCKASGYTFTNYGMNWVRQAPGQGLKWMGWINNNNGEPTYAQGFRGRFVFSLDTSASTAYLQISSLKTEDTAVYFCARDVMDYWGQGTTVTVSS VL: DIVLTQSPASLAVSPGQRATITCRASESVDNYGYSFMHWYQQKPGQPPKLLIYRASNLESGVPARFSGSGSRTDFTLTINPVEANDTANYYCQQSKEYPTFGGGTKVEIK", "EC50", 0.132),
]

Cited source for all entries: patent US8735553
